# System: LB37-NSCLC
# ASSAY_OVERVIEW: Anti-proliferative assay (Oncodesign)
# Assay type: cell-based
# PARTICULARS: LB37-NSCLC (LUNG); read-out: IC50 (Concentration of test compound)
REPORTED_METRIC: pIC50
# pIC50 is unitless: minus log10 of the molar concentration; print number only

Item CC(C)c1cc(C(=O)N2Cc3ccc(CN4CCN(C)CC4)cc3C2)c(O)cc1O : provide pIC50
7.20

* * *

# System: CGL-1
# ASSAY_OVERVIEW: Anti-proliferative assay (Oncodesign)
# Type: cell-based
# PARTICULARS: CGL-1 (BRAIN); read-out: IC50 (Concentration of test compound)
REPORTED_METRIC: IC50

Item CC(C)c1cc(C(=O)N2Cc3ccc(CN4CCN(C)CC4)cc3C2)c(O)cc1O : provide IC50
> 10 µM

* * *

# Tested on: KB3
# ASSAY_OVERVIEW: Anti-proliferative assay (Oncodesign)
# Type: cell-based
# PARTICULARS: KB3 (HEAD AND NECK); read-out: IC50 (Concentration of test compound)
REPORTED_METRIC: IC50 (nM)
Field: numeric (nM). Do not append units.

Item CC(C)c1cc(C(=O)N2Cc3ccc(CN4CCN(C)CC4)cc3C2)c(O)cc1O : provide IC50
48

* * *

# ASSAY_OVERVIEW: Whole blood stability
# Format: in vitro ADME
# PARTICULARS: 1 μM, 37° C., 120 mins
Assignment: determine reported Percentage remaining Mouse blood for the given compounds.
Field: numeric (%). Do not append units.

Item COCOc1cc(O)c(C(=O)N2Cc3ccc(CN4CCN(C)CC4)cc3C2)cc1C(C)C : provide Percentage remaining Mouse blood
104

Item CC(C)c1cc(C(=O)N2Cc3ccc(CN4CCN(C)CC4)cc3C2)c(O)cc1O : provide Percentage remaining Mouse blood
102

Item C=CCOc1cc(OCC=C)c(C(C)C)cc1C(=O)N1Cc2ccc(CN3CCN(C)CC3)cc2C1 : provide Percentage remaining Mouse blood
125

Item COc1cc(OC)c(C(C)C)cc1C(=O)N1Cc2ccc(CN3CCN(C)CC3)cc2C1 : provide Percentage remaining Mouse blood
100

Item CCN(CC)C(=O)Oc1cc(O)c(C(C)C)cc1C(=O)N1Cc2ccc(CN3CCN(C)CC3)cc2C1 : provide Percentage remaining Mouse blood
94

Item CC(C)c1cc(C(=O)N2Cc3ccc(CN4CCN(C)CC4)cc3C2)c(O)cc1OC(=O)N(C)C : provide Percentage remaining Mouse blood
24

Item CCN(CC)C(=O)Oc1cc(OC(=O)N(CC)CC)c(C(C)C)cc1C(=O)N1Cc2ccc(CN3CCN(C)CC3)cc2C1 : provide Percentage remaining Mouse blood
93

* * *

# Tested on: Hep 3B2.1-7
# ASSAY_OVERVIEW: Anti-proliferative assay (Oncodesign)
# Format: cell-based
# PARTICULARS: Hep 3B2.1-7 (LIVER); read-out: IC50 (Concentration of test compound)
REPORTED_METRIC: pIC50
# pIC50 is unitless: minus log10 of the molar concentration; print number only

Item CC(C)c1cc(C(=O)N2Cc3ccc(CN4CCN(C)CC4)cc3C2)c(O)cc1O : provide pIC50
7.02

* * *

# ASSAY_OVERVIEW: Whole blood stability
# Type: in vitro ADME
# PARTICULARS: 1 μM, 37° C., 60 mins (footnote *)
Assignment: determine reported Percentage remaining Mouse blood for the given molecules.
Field: numeric (% *). Do not append units.

Item CC(C)c1cc(C(=O)N2Cc3ccc(CN4CCN(C)CC4)cc3C2)c(OC(=O)N2CCCC2)cc1O : provide Percentage remaining Mouse blood
103

Item COCOc1cc(OCOC)c(C(C)C)cc1C(=O)N1Cc2ccc(CN3CCN(C)CC3)cc2C1 : provide Percentage remaining Mouse blood
105

Item CC(C)c1cc(C(=O)N2Cc3ccc(CN4CCN(C)CC4)cc3C2)c(O)cc1OC(=O)N1CCCC1 : provide Percentage remaining Mouse blood
79

Item COCOc1cc(O)c(C(C)C)cc1C(=O)N1Cc2ccc(CN3CCN(C)CC3)cc2C1 : provide Percentage remaining Mouse blood
104
